EXPERIMENTAL_SYSTEM: Histamine H1 receptor (Cavia porcellus)
TEST_NAME: Antagonist activity at histamine H1 receptor in Cavia porcellus (guinea pig) ileum
Format: tissue-based
MEASURED_QUANTITY: Activity (µM/L)

Worked examples follow.
- MOLECULE: "CCc1ccccc1NC(=O)CCN1CCN(Cc2ccccc2)CC1"
  Activity (µM/L): 0.778
- MOLECULE: "O=C(NCCN1CCN(Cc2ccccc2)CC1)c1ccccc1"
  Activity (µM/L): 6.94
- MOLECULE: "O=C(NCCN1CCN2Cc3[nH]c4ccccc4c3CC2C1)c1ccccc1[N+](=O)[O-] (centres undefined)"
  Activity (µM/L): 0.375
- MOLECULE: "O=C(NCCN1CCN(Cc2ccccc2)CC1)c1ccccc1Cl"
  Activity (µM/L): 0.696
- MOLECULE: "O=C(NCCN1CCN2Cc3[nH]c4ccccc4c3CC2C1)c1ccccc1 (centres undefined)"
  Activity (µM/L): 0.535
- MOLECULE: "O=C(NCCN1CCN2Cc3[nH]c4ccccc4c3CC2C1)c1ccccc1Cl (centres undefined)"
  Activity (µM/L): 0.206

I. CN(C)C[C@@H]1O[C@@H](c2ccccc2)c2ccccc21 (relative stereo)
II. O=C(CCN1CCN2Cc3ccccc3CC2C1)Nc1ccccc1Cl (centres undefined)
III. Cc1ccccc1C(=O)NCCN1CCC(Cc2ccccc2)CC1
IV. O=C(CCN1CCN2Cc3[nH]c4ccccc4c3CC2C1)Nc1ccccc1 (centres undefined)
V. COc1ccccc1C(=O)NCCN1CCN2Cc3[nH]c4ccccc4c3CC2C1 (centres undefined)
Ordering: ascending Activity. Would you mind listing the labels in the order requested? I, V, II, III, IV
(I: 0.0039 µM/L, V: 0.364 µM/L, II: 0.677 µM/L, III: 1.07 µM/L, IV: 1.6 µM/L)

I. CCc1ccccc1NC(=O)CCN1CCC(Cc2ccccc2)CC1
II. O=C(CCN1CCN2Cc3[nH]c4ccccc4c3CC2C1)Nc1ccccc1[N+](=O)[O-] (centres undefined)
III. O=C(CCN1CCN2Cc3[nH]c4ccccc4c3CC2C1)Nc1ccccc1Cl (centres undefined)
IV. Cc1ccccc1C(=O)NCCN1CCN(Cc2ccccc2)CC1
V. CN(C)CCOC1c2ccccc2-c2ccccc21
Ordering: ascending Activity. Would you mind listing the labels in the order requested? V, I, III, II, IV
(V: 0.039 µM/L, I: 0.477 µM/L, III: 0.979 µM/L, II: 1.74 µM/L, IV: 7.12 µM/L)

A. CCc1ccccc1NC(=O)CCN1CCN2Cc3ccccc3CC2C1 (centres undefined)
B. O=C(CCN1CCC(Cc2ccccc2)CC1)Nc1ccccc1
I'm curious whether A or B has the smaller Activity number. Which is it? Give the chosen item's label as your response. A
(A: 0.525 µM/L, B: 1.51 µM/L)

A. O=C(NCCN1CCC(Cc2ccccc2)CC1)c1ccccc1Br
B. O=C(CCN1CCN2Cc3ccccc3CC2C1)Nc1ccccc1[N+](=O)[O-] (centres undefined)
I'm curious whether A or B has the smaller Activity number. Which is it? Give the chosen item's label as your response. A
(A: 0.661 µM/L, B: 1.32 µM/L)
